assay: NCI Yeast Anticancer Drug Screen. Data for the rad18 strain (AID 177); conditions: S. cerevisiae rad18 mutant growth inhibition; at 1.2 µM; stronger effect = higher value
This is part of a sample that, as a whole, favours compounds with a hit. Of some 79,000 tested, about 15% had one in any assay.
recorded-metric: growth inhibition (%)
Quick note: give the figure in %, leave out the unit.

Record CC1CCC2(NC1)OC1CC3C4CCC5CC(OC6OC(CO)C(OC7OC(CO)C(O)C(OC8OCC(O)C(O)C8O)C7OC7OC(CO)C(O)C(O)C7O)C(O)C6O)CCC5(C)C4CCC3(C)C1C2C (stereo not given) . Reported growth inhibition: 4

Lookup result for N#Cc1cc(N(CCCl)CCCl)c([N+](=O)[O-])cc1[N+](=O)[O-] ; measured growth inhibition: 64

====

test: NCI Yeast Anticancer Drug Screen. Data for the mlh1 rad18 strain (AID 175); details: S. cerevisiae mlh1 rad18 strain growth inhibition; at 50.0 µM (retest, dose inferred, filed as 5.0); stronger effect = higher value
Compounds without any hit were thinned out: in the full panel of roughly 79,000, 15% have a hit.
recorded-metric: growth inhibition (%)
Entry rule: numbers only, all in %.

- compound: "N#CC(=C=N)N=C(F)C(C#N)=C(C#N)C#N"
  unit-of-measure: "%"
  growth inhibition: 93
- compound: "Cc1c(N)nc([C@H](CC(N)=O)NC[C@H](N)C(N)=O)nc1C(=O)N[C@H](C(=O)N[C@H](C)[C@@H](O)[C@H](C)C(=O)N[C@H](C(=O)NCCc1nc(-c2nc(C(=O)NCCC[S+](C)C)cs2)cs1)[C@@H](C)O)C(OC1OC(CO)C(O)C(O)C1OC1OC(CO)C(O)C(OC(N)=O)C1O)c1cnc[nH]1 (stereo partly drawn)"
  unit-of-measure: "%"
  growth inhibition: 99

// moving on: another record for growth inhibition
The compound listed as CCC[CH2][Sn]1([CH2]CCC)[O]Cc2nc(C)ccc2[O]1 shows growth inhibition equal to 96

====

test: NCI Yeast Anticancer Drug Screen. Data for the sgs1 mgt1 strain (AID 161);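 also: 0% = growth of cultures given vehicle only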; settings: S. cerevisiae sgs1 mgt1 strain, at 5.0 µM (retest, dose inferred, filed as 0.5), stronger effect = higher value
This is part of a sample that, as a whole, favours compounds with a hit. Of some 79,000 tested, about 15% had one in any assay. Calls of active or inactive are those of the source. No stated cut-off is given here; in the data, active means growth inhibition above about 70%; inactive means the rest.
recorded-metric: growth inhibition

- compound: "CCOP(=O)(OCC)/C(C#N)=C/c1cccc(Cl)c1"
  recorded-metric: "growth inhibition"
  result: "5% (inactive)"
- compound: "C[CH2][Sn]([CH2]C)([CH2]C)[O]C(=O)CO"
  recorded-metric: "growth inhibition"
  result: "17% (inactive)"
- compound: "O=C(COc1ccc(Cl)c(Cl)c1)N(Cc1ccccc1)Cc1ccc[n+](Cc2ccc(S(=O)(=O)F)cc2)c1"
  recorded-metric: "growth inhibition"
  result: "1% (inactive)"
- compound: "Oc1cccc2cccnc12 (tested in a mixture with another compound)"
  recorded-metric: "growth inhibition"
  result: "-4% (inactive)"
- compound: "Cc1ccc(C(Cc2ccc(N3C(N)=NC(N)=NC3(C)C)cc2)C(=O)Nc2ccc(S(=O)(=O)F)cc2)cc1 (stereo not given)"
  recorded-metric: "growth inhibition"
  result: "1% (inactive)"

get_value(item= CSc1ccc2c(c1)c(CCN)c(C)n2Cc1ccccc1Cl , readout=growth inhibition) returns 12% (inactive)

// sample O=c1[nH]cc(Cn2cnc3ncccc3c2=O)c(=O)[nH]1 , its growth inhibition was -3% (inactive)

# growth inhibition (compound: Cc1ccc(C(=O)CCl)o1 ) is -46% (inactive)

Input CCOC(=O)C(NC(=O)C(Cc1ccc(N(CCCl)CCCl)cc1)NC(C)=O)C(C)C (stereo not given) . Output growth inhibition: -5% (inactive)

// recorded growth inhibition for CCN(CCCl)c1ccc(/C=C/C2=[N+](C)c3ccccc3C2(C)C)c(C)c1 : -8% (inactive)
